Recorded Vd, one value per entry.
Test: Volume of distribution in Sprague-Dawley rat at 10 mg/kg, po and 10 mg/kg iv
Format: ADME, organism-based
Settings: in vivo

Data request: Consider the compound shown here: Cc1c(/C=C2\C(=O)Nc3ccc(F)cc32)[nH]c2c1C(=O)N(C[C@H](O)CN1CCOCC1)CCC2 What is its recorded Vd?
Data returned: 5.1 L/kg

* * *

Assay: Oral bioavailability in Sprague-Dawley rat at 10 mg/kg
Type: ADME, organism-based
Settings: in vivo
Recorded bioavailability, one value per entry.

// below: answered compounds
CCN(CC)CCN1CCCc2[nH]c(/C=C3\C(=O)Nc4ccc(F)cc43)c(C)c2C1=O :: 65.8%
CCN(CC)CCN1CCc2[nH]c(/C=C3\C(=O)Nc4ccc(F)cc43)c(C)c2C1=O [FAMITINIB] :: 36.7%
Cc1c(/C=C2\C(=O)Nc3ccc(F)cc32)[nH]c2c1C(=O)N(C[C@H](O)CN1CCOCC1)CC2 :: 50.7%

Consider the record given below.
Data request: Consider the compound shown here: Cc1c(/C=C2\C(=O)Nc3ccc(F)cc32)[nH]c2c1C(=O)N(C[C@H](O)CN1CCOCC1)CCC2 [HENATINIB] What is its recorded bioavailability?
Data returned: 55.2%

Hey, just so you know, these numbers are from ChEMBL document CHEMBL1275399.
